Parameter: NT50. Scope: all listed entries.
Target: T1, Marburg virus Angola GP on rVSV pseudotype (Marburg virus, Angola strain, UniProt Q1PD50 19-681)
T1 sequence: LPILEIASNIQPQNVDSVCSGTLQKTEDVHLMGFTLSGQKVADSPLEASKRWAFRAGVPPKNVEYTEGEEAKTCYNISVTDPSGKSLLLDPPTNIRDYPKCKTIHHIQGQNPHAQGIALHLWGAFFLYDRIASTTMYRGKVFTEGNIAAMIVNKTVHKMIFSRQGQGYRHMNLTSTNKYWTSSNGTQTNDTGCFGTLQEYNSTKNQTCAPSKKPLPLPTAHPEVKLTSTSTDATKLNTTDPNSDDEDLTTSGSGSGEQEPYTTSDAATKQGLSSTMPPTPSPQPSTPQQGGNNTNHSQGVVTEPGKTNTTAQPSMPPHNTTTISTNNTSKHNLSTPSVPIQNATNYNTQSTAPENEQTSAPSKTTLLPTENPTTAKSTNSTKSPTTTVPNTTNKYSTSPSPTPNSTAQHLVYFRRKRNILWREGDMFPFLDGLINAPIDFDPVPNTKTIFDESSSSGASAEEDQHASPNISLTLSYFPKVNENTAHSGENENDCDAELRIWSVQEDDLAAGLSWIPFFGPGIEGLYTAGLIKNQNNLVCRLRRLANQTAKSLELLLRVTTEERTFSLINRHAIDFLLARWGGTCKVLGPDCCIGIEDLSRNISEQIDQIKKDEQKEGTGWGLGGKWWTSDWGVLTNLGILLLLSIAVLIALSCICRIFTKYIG
Assay: cell-based or functional assay
A number alone suffices; assume µg/mL.

response.value for R25 (antibody, V domains shown) VH: EVQLVESGAGLVQPGGSLRLSCAASGFTFSNSWMTWVRQAPGKGLEWVGRIKRKADGETADYAASVKGRFTISRDDSKNTLYLQMNSLKTEDTAVYYCTTYNWNFNFDHWGQGVLVTVSS VL: DIQMTQSPSSLSASVGDRVTITCRASQDISPYLNWYQQKPGKAPKLLIYYGNRLESGVPSRFSGSGSGTDLTLTISSLQPEDFATYYCQQYYRLPLTFGGGTKVEIK (field: NT50) = 0.03

Lab note: R79 (antibody, V domains shown) VH: EVQLVESGGGLAKPGGSLRLSCAASGFTFNDYWLFWVRQAPGRGLEWISTINRPGSSTFYADSVKGRFTISRENANNALYLQMDSLRPEDTAVYYCARDQGRTVGYLDYWGQGVLVTVSS VL: QSALTQPRSVSGSPGQSVTISCTGTSSDIGSYSYVSWYQQHPGTAPKLIIYDDSERPSGVSDRFSGSKSGNTASLTISGLQAEDEADYYCSSYAGSNTWVFGGGTRLTVL gave NT50 of 0.21

NT50 recorded for this binder, R24 (antibody, V domains shown) VH: EVQLVESGAGLVQPGGSLRLSCAGSGFTFSNTWMTWVRQAPGKGLEWVARIKRKADGETADYAASVKGRFTISRDDSKSTLYLQMNSLKTEDTAVYYCTTYNWNFNFDYWGQGVLVTVSS VL: DIQMTQSPSSLSASVGDRVTITCRASQDISPYLNWYQQKPGKAPKLLIYYGNRLESGVPSRFSGSGSGTDLTLTISSLQPEDFATYYCQQYYRLPLTFGGGTKVESK , is 0.04

Per the records, this binder ( R15 (antibody, V domains shown) VH: EVQLVESGAGLVRPGGSLRLSCAASGFTFSNTWMTWVRQAPGRGLEWLARIKRKADGETADYAASVKGRFTISRDDSKHTLFLQMNSLKTEDTAVYYCTTYNWNFNFDNWGQGVLVTVSS VL: DIQMTQSPSSLSASVGDRVTITCRASQAFSSYLNWYQQKPGKAPKLLIYYANRLESGVPSRFSGSESGTEFTLTISSLQPEDFATYYCQQYYRLPLTFGGGTKVEIK ) has NT50 equal to 0.04

# input for lookup
The binder identified as R50 (antibody, V domains shown) VH: QVQLQESGPGLVKPSETLSLTCAVSGDSISSYWWNWIRQPPGKGLEWIGEIYGYSGSTNYNASLKSRVTISKDASKKQLSLKLSSVTAADTAVYYCARDPLNQDAFDFWGLGLRVTVSS VL: QSALTQPPSVSGSPGQSVTISCTGTSSDIGGYTYVSWYQQHPGKAPKLMIYDVSRRPSGVSDRFSGSKSGNTASLTISGLQAEDEADYYCSSYAGRNALLFGGGTRLTVL registered its NT50 at 0.05
